These data points were gathered from the RNAGym collection of RNA variant scans (doi:10.1073/pnas.2313332121).

B1: TPR t1 (parent)
chain: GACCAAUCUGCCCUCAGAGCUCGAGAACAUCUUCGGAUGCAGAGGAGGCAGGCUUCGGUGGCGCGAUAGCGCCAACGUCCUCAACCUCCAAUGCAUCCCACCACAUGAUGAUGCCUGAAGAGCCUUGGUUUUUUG

variants of: B1; assay: polymerase ribozyme fitness, log enrichment relative to wild type (log ratio); higher = more active; in vitro selection for triplet polymerase activity
value type: polymerase ribozyme fitness (log ratio)
Lab note: record just the number, no unit beside it.

Which polymerase ribozyme fitness (log ratio) is listed for A41U G63A C86G C101U ?
-4.01

Cool, now G42C G71U
-2.39

// same read-out, input: G69U C99A
-3.23

# iterate: C70A U87G
-1.73

Another variant: A6G G69A C73A
-2.9

And the next one, A18U A41U C114U C115G U116G A121G G122U ?
-3.05

Then what about the variant G48U A50G ?
-1.02

Field entry: A29U C89U A119U
-3.93

// next record C22A G36A U55C U96A A111U
-6.03

Can you handle C28U A119G next?
-1.04

Query C64U U130C next
-0.0426

Next variant: A2G U14A C62A
-3.69

Entry C56A C80A please
-2.22

How about A6G U112A ?
1.64

Do the same for A41C C88U U92C C104U A111C U125G U132C please
-4.35

And for U21A G42C ?
-1.94

Param item: C22U G45U C49A U106A
-5.79

Then G42U G45C C70U A83G ?
-5.2

Similarly, C8A G48U U59G C73G A105C U112C G120A ?
-2.35

Entry A16U A46U C49A please
-2.45

Would you mind doing G57U G58C as well?
-1.12

What about this variant? A2C C123A
-0.696
